Reference source: ChEMBL document CHEMBL1138392

experiment: Stability in phosphate buffer assessed as hydrolysis at pH 7.4 after 3 days; format: physicochemical; details: read-out: Activity
QUANTITY_NAME: degraded at 72 h

COMPOUND | degraded at 72 h
N[C@@H](Cc1ccccc1)C(=O)N[C@@H]1CCOP(=O)(N(CCCl)CCCl)N1 (some centres not stated) | < 10%

Turning now to a further compound:
Task: Given the entry N[C@@H](Cc1ccccc1)C(=O)N[C@H]1CCOP(=O)(N(CCCl)CCCl)N1 (some centres not stated) , report its measured degraded at 72 h.
Result: < 10%

====

assay: Stability in presence of alpha-chymotrypsin at 100 mM after 12 hrs; type: ADME; conditions: 100000 µM

COMPOUND | Activity
N[C@@H](Cc1ccccc1)C(=O)N[C@H]1CCOP(=O)(N(CCCl)CCCl)N1 (some centres undefined) | Not Active
O=C(N[C@@H](Cc1ccccc1)C(=O)N[C@H]1CCOP(=O)(N(CCCl)CCCl)N1)OCc1ccccc1 (stereo in doubt; cis) | Active
N[C@@H](Cc1ccccc1)C(=O)N[C@@H]1CCOP(=O)(N(CCCl)CCCl)N1 (some centres undefined) | Not Active
O=C(N[C@@H](Cc1ccccc1)C(=O)N[C@@H]1CCOP(=O)(N(CCCl)CCCl)N1)OCc1ccccc1 (some centres undefined) | Active
